- Measurement Notes: Toxicity in OVX-induced bone loss C57BL/6 mouse model assessed as change in eating at 10 mg/kg, po for 6 weeks
- Assay type: organism-based
- Study Conditions: in vivo, 1008 h
Reported Metric: Activity

INSERT INTO measurements (smiles, meas_value) VALUES
  ('Cc1nc(-c2ccc(C(F)(F)F)cc2)sc1CN(C)c1ccc(/C=C/C(=O)O)cc1', 'Toxic'),
  ('Cc1nc(-c2ccc(C(F)(F)F)c(F)c2)sc1COc1ccc(/C=C/C(=O)O)cc1', 'Toxic'),
  ('Cc1cc(N(C)Cc2sc(-c3ccc(C(F)(F)F)cc3)nc2C)ccc1/C=C/C(=O)O', 'Toxic'),
  ('Cc1nc(-c2ccc(C(F)(F)F)c(F)c2)sc1CSc1ccc(/C=C/C(=O)O)cc1', 'Toxic');

----------
- Assayed System: Peroxisome proliferator-activated receptor alpha (Homo sapiens) (UniProt Q07869)
- Sequence (Q07869 whole entry): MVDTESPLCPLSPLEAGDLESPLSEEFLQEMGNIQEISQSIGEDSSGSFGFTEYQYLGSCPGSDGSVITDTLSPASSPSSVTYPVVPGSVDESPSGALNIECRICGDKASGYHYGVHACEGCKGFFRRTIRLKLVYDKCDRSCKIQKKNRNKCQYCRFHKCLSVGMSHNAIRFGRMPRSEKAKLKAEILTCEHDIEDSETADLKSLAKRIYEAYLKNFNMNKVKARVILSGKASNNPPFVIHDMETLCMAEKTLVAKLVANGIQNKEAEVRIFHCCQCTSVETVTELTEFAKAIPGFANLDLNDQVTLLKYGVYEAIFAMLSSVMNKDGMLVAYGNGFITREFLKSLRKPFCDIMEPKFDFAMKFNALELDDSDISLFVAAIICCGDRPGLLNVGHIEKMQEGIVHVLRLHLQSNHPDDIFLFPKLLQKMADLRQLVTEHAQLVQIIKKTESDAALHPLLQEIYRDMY
- Measurement Notes: Agonist activity at human PPARalpha transfected in COS-7 cells assessed maximum luciferase activity measured after 24 hrs by cell based luciferase transactivation assay relative to gemfibrozil
- Study Conditions: filed as agonist
Reported Metric: Emax (%)
Numbers only; they are read as %.

Value of measured Emax for the entry "Cc1nc(-c2ccc(C(F)(F)F)c(F)c2)sc1CSc1ccc(/C=C/C(=O)O)cc1" : 163

For reference, reported Emax for "Cc1nc(-c2ccc(C(F)(F)F)c(F)c2)sc1COc1ccc(/C=C/C(=O)O)cc1" stands at 346

Value of measured Emax for the entry "Cc1nc(-c2ccc(C(F)(F)F)cc2)sc1CSc1ccc(/C=C/C(=O)O)cc1" : 338

# Emax of "Cc1nc(-c2ccc(C(F)(F)F)cc2)sc1COc1ccc(/C=C/C(=O)O)cc1" = 135

# Emax of "Cc1nc(-c2ccc(C(F)(F)F)cc2)sc1CN(C)c1ccc(/C=C/C(=O)O)cc1" = 44

Query Cc1ccc(C)c(OCCCC(C)(C)C(=O)O)c1 [GEMFIBROZIL] yields Emax of 110

Emax measured on "Cc1nc(-c2ccc(C(F)(F)F)cc2)sc1CNc1ccc(/C=C/C(=O)O)cc1" = 377

----------
- System: Mesenchymal stem cells
- Measurement Notes: Induction of adipogenesis differentiation in human Mesenchymal stem cells at 1 uM incubated for 21 days by […] staining-based microscopic analysis
- Type: functional, cell-based
- Study Conditions: time 21.0 day
Activity calls are given as the source filed them. The calls are words filed in the database; no cut-off is given here.
Reported Metric: Activity

Below, 4 compounds whose answers are already recorded.
INSERT INTO results (compound, meas_value) VALUES
  ('Cc1nc(-c2cccc(C(F)(F)F)c2)sc1CSc1ccc(/C=C/C(=O)O)cc1', 'inactive'),
  ('COC(=O)/C=C/c1ccc(OCc2sc(-c3cccc(C(F)(F)F)c3)nc2C)cc1', 'Active'),
  ('Cc1sc(-c2ccc(C(F)(F)F)cc2)nc1CN(C)c1ccc(/C=C/C(=O)O)cc1', 'inactive'),
  ('Cc1nc(-c2ccc(C(F)(F)F)c(F)c2)sc1CSc1ccc(/C=C/C(=O)O)cc1', 'inactive');

The reported Activity of the compound "CCCN(Cc1sc(-c2ccc(C(F)(F)F)cc2)nc1C)c1ccc(/C=C/C(=O)O)cc1" was inactive

Recorded result, "Cc1nc(-c2ccc(C(F)(F)F)cc2)sc1CN(Cc1sc(-c2ccc(C(F)(F)F)cc2)nc1C)c1ccc(/C=C/C(=O)O)cc1" , Activity: inactive

Query CN(CCOc1ccc(CC2SC(=O)NC2=O)cc1)c1ccccn1 (configuration not stated) yields Activity of Active

"Cc1nc(-c2ccccc2)sc1COc1ccc(/C=C/C(=O)O)cc1" has a reported Activity of Active

The reported value for "Cc1nc(-c2ccc(C(F)(F)F)c(F)c2)sc1CNc1ccc(/C=C/C(=O)O)cc1" in terms of Activity is inactive

Recorded Activity (compound "Cc1nc(-c2ccccc2)sc1CN(C)c1ccc(/C=C/C(=O)O)cc1" ): inactive

Please fill in: Activity reported for "Cc1nc(-c2ccccc2)sc1CSc1ccc(/C=C/C(=O)O)cc1" = Active

Given item "Cc1nc(-c2ccc(C(F)(F)F)cc2)sc1CN(C)c1ccc(/C=C/C(=O)O)cc1" , the value recorded as its Activity is inactive

For reference, reported Activity for "Cc1nc(-c2cccc(C(F)(F)F)c2)sc1CNc1ccc(/C=C/C(=O)O)cc1" stands at Active

According to the records, this compound "CCN(Cc1sc(-c2ccc(C(F)(F)F)cc2)nc1C)c1ccc(/C=C/C(=O)O)cc1" displays Activity of Active

Just so you know, measured Activity for "Cc1nc(-c2ccc(C(F)(F)F)cc2)sc1COc1ccc(/C=C/C(=O)O)cc1" came out at Active

Memo: "Cc1cc(N(C)Cc2sc(-c3ccc(C(F)(F)F)cc3)nc2C)ccc1/C=C/C(=O)O" , reported Activity: inactive

Form field Activity, entry "Cc1nc(-c2ccc(C(F)(F)F)cc2)sc1CN(C)c1ccc(/C=C/C(=O)O)c(C(C)C)c1" : inactive

compound "CCc1cc(N(C)Cc2sc(-c3ccc(C(F)(F)F)cc3)nc2C)ccc1/C=C/C(=O)O" , Activity observed: Active

Lab book: Activity of "Cc1nc(-c2ccc(C(F)(F)F)c(F)c2)sc1CN(C)c1ccc(/C=C/C(=O)O)cc1" noted as inactive

----------
- Assayed System: Peroxisome proliferator-activated receptor gamma (Homo sapiens, UniProt P37231)
- Sequence (P37231 whole entry): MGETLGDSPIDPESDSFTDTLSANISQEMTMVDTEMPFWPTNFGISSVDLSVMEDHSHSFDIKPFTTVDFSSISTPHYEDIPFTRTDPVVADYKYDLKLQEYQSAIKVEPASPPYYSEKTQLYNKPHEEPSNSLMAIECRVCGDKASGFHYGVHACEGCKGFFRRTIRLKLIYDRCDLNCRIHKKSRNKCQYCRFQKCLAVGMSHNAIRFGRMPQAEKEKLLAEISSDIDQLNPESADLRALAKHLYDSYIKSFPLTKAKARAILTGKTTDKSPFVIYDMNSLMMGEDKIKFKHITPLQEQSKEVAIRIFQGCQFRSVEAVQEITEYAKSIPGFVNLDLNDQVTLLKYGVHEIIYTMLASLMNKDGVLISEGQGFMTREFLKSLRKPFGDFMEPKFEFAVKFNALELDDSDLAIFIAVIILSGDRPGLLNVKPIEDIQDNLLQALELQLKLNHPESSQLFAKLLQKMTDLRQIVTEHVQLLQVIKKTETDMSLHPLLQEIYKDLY
- Measurement Notes: Agonist activity at human PPARgamma transfected in COS-7 cells assessed luciferase activity measured after 24 hrs by cell based luciferase transactivation assay
- Study Conditions: read-out: EC50
pEC50: −log10 of the molar value.
Use Satisfied when the recorded pEC50 is no lower than 5; use Not satisfied when it is lower.

## Task Confirm if pEC50 reported for the compound "Cc1nc(-c2ccc(C(F)(F)F)cc2)sc1CN(C)c1ccc(/C=C/C(=O)O)cc1" is 5 or above.
## Result Not satisfied

## Task Identify whether the reported pEC50 of the following compound is 5 or greater: "Cc1nc(-c2ccc(C(F)(F)F)cc2)sc1CSc1ccc(/C=C/C(=O)O)cc1"
## Result Not satisfied

## Task Hi, just wondering whether "Cc1nc(-c2ccc(C(F)(F)F)c(F)c2)sc1CSc1ccc(/C=C/C(=O)O)cc1" shows pEC50 of 5 or higher.
## Result Satisfied

----------
- Assayed System: Peroxisome proliferator-activated receptor alpha (Homo sapiens, UniProt Q07869)
- Measurement Notes: Agonist activity at human PPARalpha transfected in COS-7 cells assessed luciferase activity measured after 24 hrs by cell based luciferase transactivation assay
- Study Conditions: read-out: EC50
Reported Metric: EC50 (µM)
Field: numeric (µM). Do not append units.

Observed EC50 on Peroxisome proliferator-activated receptor alpha (Homo sapiens, UniProt Q07869), entry "Cc1nc(-c2ccc(C(F)(F)F)c(F)c2)sc1CSc1ccc(/C=C/C(=O)O)cc1" , equals 0.915

// compound "Cc1nc(-c2ccc(C(F)(F)F)cc2)sc1CSc1ccc(/C=C/C(=O)O)cc1" , assay Peroxisome proliferator-activated receptor alpha (Homo sapiens, UniProt Q07869), EC50 value: 17.7

The reported Peroxisome proliferator-activated receptor alpha (Homo sapiens, UniProt Q07869) EC50 of "Cc1cc(SCc2sc(-c3ccc(C(F)(F)F)c(F)c3)nc2C)ccc1OCC(=O)O" is 2.5

The compound "Cc1nc(-c2ccc(C(F)(F)F)c(F)c2)sc1COc1ccc(/C=C/C(=O)O)cc1" on Peroxisome proliferator-activated receptor alpha (Homo sapiens, UniProt Q07869): EC50 was 51.3

The compound "Cc1nc(-c2ccc(C(F)(F)F)cc2)sc1COc1ccc(/C=C/C(=O)O)cc1" , tested on Peroxisome proliferator-activated receptor alpha (Homo sapiens, UniProt Q07869), showed EC50 of 2.23

EC50 on Peroxisome proliferator-activated receptor alpha (Homo sapiens, UniProt Q07869) for "Cc1ccc(C)c(OCCCC(C)(C)C(=O)O)c1" is 11.8

Measured EC50 (Peroxisome proliferator-activated receptor alpha (Homo sapiens, UniProt Q07869)), entry "Cc1nc(-c2ccc(C(F)(F)F)cc2)sc1CN(C)c1ccc(/C=C/C(=O)O)cc1" : 0.947

The reported EC50 value, Peroxisome proliferator-activated receptor alpha (Homo sapiens, UniProt Q07869), for "Cc1nc(-c2ccc(C(F)(F)F)cc2)sc1CNc1ccc(/C=C/C(=O)O)cc1" reads 6.01
